- testDetails: Solubility of selected materials in water, expressed in percent by weight at 20° C.
- Assay type: physicochemical
- condition: water, read-out: Sol. in Water
endpointLabel: solubility (mg/mL)

>>> measured("CCCC(O)C(CC)CO (stereo not shown)")
42
